Here, each record is paired with measured hERG current change (%, negative = inhibition) at 10uM data.
Biological target: human ether-à-go-go-related gene (hERG) potassium channel (human, UniProt Q12809);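 further: peak tail current of the secondary pulse compared with the same well before compound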
Sequence (Q12809 whole entry, looked up): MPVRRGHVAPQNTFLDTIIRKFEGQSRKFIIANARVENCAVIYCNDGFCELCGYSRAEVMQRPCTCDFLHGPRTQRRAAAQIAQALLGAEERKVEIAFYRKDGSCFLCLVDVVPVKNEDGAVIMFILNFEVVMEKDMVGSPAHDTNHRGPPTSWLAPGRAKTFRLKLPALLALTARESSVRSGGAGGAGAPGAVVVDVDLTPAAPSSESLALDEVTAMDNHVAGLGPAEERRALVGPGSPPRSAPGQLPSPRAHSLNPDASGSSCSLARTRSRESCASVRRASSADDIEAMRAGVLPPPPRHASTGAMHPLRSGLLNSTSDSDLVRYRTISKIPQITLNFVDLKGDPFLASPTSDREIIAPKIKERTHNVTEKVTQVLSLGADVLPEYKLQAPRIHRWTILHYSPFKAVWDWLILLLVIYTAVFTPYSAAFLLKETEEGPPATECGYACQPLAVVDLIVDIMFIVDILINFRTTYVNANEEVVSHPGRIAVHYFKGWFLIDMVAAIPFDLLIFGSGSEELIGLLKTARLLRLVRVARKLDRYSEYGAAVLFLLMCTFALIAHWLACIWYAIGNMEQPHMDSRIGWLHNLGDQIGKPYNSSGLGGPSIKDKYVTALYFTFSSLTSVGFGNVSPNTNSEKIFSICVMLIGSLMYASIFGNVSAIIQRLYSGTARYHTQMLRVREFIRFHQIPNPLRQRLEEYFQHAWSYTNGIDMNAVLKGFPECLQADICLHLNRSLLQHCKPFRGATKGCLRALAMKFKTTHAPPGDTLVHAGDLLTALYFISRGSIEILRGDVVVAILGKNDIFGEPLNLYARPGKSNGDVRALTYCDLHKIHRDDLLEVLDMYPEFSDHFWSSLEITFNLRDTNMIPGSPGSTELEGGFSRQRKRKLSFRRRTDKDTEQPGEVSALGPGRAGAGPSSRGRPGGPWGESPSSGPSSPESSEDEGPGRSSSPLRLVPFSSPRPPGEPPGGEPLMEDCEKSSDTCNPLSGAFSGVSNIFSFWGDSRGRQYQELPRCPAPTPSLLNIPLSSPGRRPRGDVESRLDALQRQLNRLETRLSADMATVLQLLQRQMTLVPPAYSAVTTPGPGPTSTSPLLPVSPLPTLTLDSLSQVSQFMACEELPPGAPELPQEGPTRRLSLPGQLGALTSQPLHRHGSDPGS
Assay: primary screen, population patch clamp on CHO cells stably expressing hERG; higher = less effect of the substance
The campaign covered roughly 310,000 compounds. About 14,000 (4.5%) showed an effect of 50% or more. The effect is printed as a negative number. What follows is part of a selection rich in strong results, with near analogues and random picks from the rest.

A selection of reference data follows.
CCOc1ccc(CNS(=O)(=O)c2c(C)nc3scc(C)n3c2=O)cc1OC : 8.99%
Cc1ccc(S(=O)(=O)N2CCN(C(=O)c3ccc(N4CCCCC4)c([N+](=O)[O-])c3)CC2)cc1 : -10.2%
O=C(C1CC(=O)N(c2ccc(F)cc2)C1)N1CCCCCC1 (stereo not shown) : -6.27%
COc1cccc(CNS(=O)(=O)c2c(C)nc3sccn3c2=O)c1 : -13.6%
CCCC(C)NCC(=O)Nc1ccccc1-c1ccccc1.O=C(O)C(=O)O (stereo not shown) : -21.5%
Cc1c(NC(=O)CSc2n[nH]c(-c3ccccc3)n2)c(=O)n(-c2ccccc2)n1C : 3.93%

So what does the record say about hERG current change (%, negative = inhibition) at 10uM for Cn1c(CNc2ccccn2)c(C#N)c2ccccc21 ? -6.94%

So what does the record say about hERG current change (%, negative = inhibition) at 10uM for O=C(COC(=O)c1ccccc1NS(=O)(=O)c1cccs1)NCC12CC3CC(CC(C3)C1)C2 ? 5.15%

So what does the record say about hERG current change (%, negative = inhibition) at 10uM for Cc1cccc(C2=NOC(=O)/C2=C\c2ccccc2F)c1 ? 9.48%

So what does the record say about hERG current change (%, negative = inhibition) at 10uM for Cn1c2c(c(=O)n(C)c1=O)CN(CC1CCCO1)CN2 (stereo not shown) ? 9.87%

This collection of values is drawn from paper PMC4336329.
